Source of measurements: ChEMBL document CHEMBL1132240

Tested on: HL-60
Experiment: Cytotoxic activity against Human promyelocytic Leukemia HL-60 Concentration of agent required to reduce cell viability by 50%
Assay type: functional, cell-based
valueType: log10 IC50 (log10 of the value in µM)
Record value = log10 of IC50 given in µM.

>>> df
                             compoundstring   valuetype  readoutnumber
0  CCN(CC)CCn1c2cc(N3CCCC3)c(N)cc2c(=O)c2c(O)cc(O)cc21  log10 IC50           1.98
1  CN1CCN(c2cc3c(cc2N)c(=O)c2c(O)cc(O)cc2n3C)CC1  log10 IC50           1.38

Prompt: Item `CCN(CC)CCn1c2cc(Cl)c(N)cc2c(=O)c2c(O)cc(O)cc21` has what recorded log10 IC50?
Completion: 0.59

---

Tested on: HL-60
Assay: Cytotoxic activity against Human promyelocytic Leukemia HL-60 Concentration of agent required to reduce cell viability by 90%
Assay type: functional
Returns: string. Value is True if measured IC90 is below 30 µM, and False if it is greater than or equal to it.

                                  molecule  assignedclass
0  CCn1c2cc(Cl)c(N)cc2c(=O)c2c(O)cc(O)cc21          False
1     CCn1c2cc(Cl)ccc2c(=O)c2c(O)cc(O)cc21          False

Prompt: Please let me know if `CCn1c2cc(N3CCN(C)CC3)c(N)cc2c(=O)c2c(O)cc(O)cc21` shows IC90 below 30 µM.
Completion: False

Prompt: Please let me know if `CCN(CC)c1cc2c(cc1N)c(=O)c1c(O)cc(O)cc1n2CC` shows IC90 below 30 µM.
Completion: False

Prompt: Please let me know if `CCN(CC)CCn1c2cc(N3CCC(O)CC3)c(N)cc2c(=O)c2c(O)cc(O)cc21` shows IC90 below 30 µM.
Completion: True

Prompt: Please let me know if `CCN(CC)CCn1c2cc(N3CCCC3)c(N)cc2c(=O)c2c(O)cc(O)cc21` shows IC90 below 30 µM.
Completion: False

Prompt: Please let me know if `CCN(CC)CCn1c2cc(O)c(N)cc2c(=O)c2c(O)cc(O)cc21` shows IC90 below 30 µM.
Completion: False

Prompt: Please let me know if `CN1CCN(c2cc3nc4cc(O)cc(O)c4c(O)c3cc2N)CC1` shows IC90 below 30 µM.
Completion: False

Prompt: Please let me know if CCn1c2cc(N3CC(C)NC(C)C3)c(N)cc2c(=O)c2c(O)cc(O)cc21 (stereo not given) shows IC90 below 30 µM.
Completion: False

Prompt: Please let me know if `CCN(CC)CCn1c2cc(Cl)c(N)cc2c(=O)c2c(O)cc(O)cc21` shows IC90 below 30 µM.
Completion: True

---

Documented IC50 across a set of compounds
Tested on: HL-60
Assay: Cytotoxic activity against Human promyelocytic Leukemia HL-60 Concentration of agent required to reduce cell viability by 50%
Type: functional, cell-based
Answer format: numeric, µM implied, no suffix.

Record excerpt, results attached:
In [3]: df
Out[3]:
                             compoundstring  readoutunit  readoutnumber
0  CCN(CC)CCNc1cc2c(cc1N)c(=O)c1c(O)cc(O)cc1n2CC           µM             19
1  CCN(CC)CCn1c2cc(NC)c(N)cc2c(=O)c2c(O)cc(O)cc21           µM            9.7
2  CCN(CC)CCn1c2cc(N3CCN(C)CC3)c(N)cc2c(=O)c2c(O)cc(O)cc21           µM             11

Prompt: Item `CCN(CC)c1cc2c(cc1N)c(=O)c1c(O)cc(O)cc1n2CC` has what recorded IC50?
Completion: 24

Prompt: Item `CCn1c2cc(N3CCC(O)CC3)c(N)cc2c(=O)c2c(O)cc(O)cc21` has what recorded IC50?
Completion: 5.4
